Data origin: patent US11771711B2

Provide the recorded solubility at 4 h for the entries that follow.
experiment: physchem; conditions: FaSSIF buffer, pH 6.5, fassif, thermodynamic from solid
Answers are plain numbers, in µg/mL.

[[record]]
compound = "CCc1c(C#N)c(S[C@@H](C(N)=O)c2ccccc2)nc(N2CC[C@H](O)C2)c1C#N [Reference compound 2, reference compound]"
property = "solubility at 4 h"
data_value = 2.7

[[record]]
compound = "CCc1c(C#N)c(S[C@@H](C(N)=O)c2ccc(OC)cc2)nc(N2CC[C@H](O)C2)c1C#N [Reference compound 4, reference compound]"
property = "solubility at 4 h"
data_value = 4


Kindly review the next compound as well.
Qu. solubility at 4 h lookup needed for CCc1c(C#N)c(S[C@@H](C(N)=O)c2ccc(OS(C)(=O)=O)cc2)nc(N(C)C)c1C#N [Example 2] , thanks.
Ans. 1
